Assay: ATG_CMV_CIS: Attagene CIS-FACTORIAL HepG2 Assay for human CMV (Internal Marker) (AID 2282928);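 note: endpoint acts as a background internal control marker rather than a target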
Conditions: HepG2 CMV promoter reporter, transcription factor profiling; actives raise or lower the signal
Experimental: ATG_CIS is a cell-based, multiplexed-readout assay that uses HepG2, a human liver cell line, with measurements taken at 24 hours after chemical dosing in a 24-well plate.ATG_CMV_CIS is one of 52 assay component(s) measured or calculated from the ATG_CIS assay. […] This assay endpoint, ATG_CMV_CIS, was analyzed with bidirectional fitting relative to DMSO as the negative control and baseline of activity. […]
Calls of active or inactive are those of the source. Rule for the calls: active = hit-call score of the fitted dose curve at least 0.9, where 1 is the maximum; inactive = score below 0.9.

{"molecule": "O=[N+]([O-])/N=C1\\NCCN1Cc1ccc(Cl)nc1", "AC50": "inactive"}
{"molecule": "COc1nn(CSP(=S)(OC)OC)c(=O)s1", "AC50": "inactive"}
{"molecule": "OCCOc1ccccc1", "AC50": "inactive"}
{"molecule": "Clc1ccccc1-c1nnc(-c2ccccc2Cl)nn1", "AC50": "inactive"}
{"molecule": "CCCN(CCC)c1c([N+](=O)[O-])cc(C(F)(F)F)cc1[N+](=O)[O-]", "AC50": "82.3 µM (active)"}
{"molecule": "CN1CSC(=S)N(C)C1", "AC50": "inactive"}
{"molecule": "CCc1ccc(C(=O)NN(C(=O)c2cc(C)cc(C)c2)C(C)(C)C)cc1", "AC50": "inactive"}
{"molecule": "C[C@H]1[C@H](c2ccc(Cl)cc2)SC(=O)N1C(=O)NC1CCCCC1", "AC50": "13.8 µM (active)"}
{"molecule": "CCS(=O)(=O)c1cccnc1S(=O)(=O)NC(=O)Nc1nc(OC)cc(OC)n1", "AC50": "inactive"}
{"molecule": "COC(=O)c1ccccc1S(=O)(=O)NC(=O)Nc1nc(C)nc(OC)n1", "AC50": "inactive"}
{"molecule": "Cc1[nH]c(=O)n(C(C)(C)C)c(=O)c1Cl", "AC50": "inactive"}
{"molecule": "COP(=O)(OC)OC=C(Cl)Cl", "AC50": "18.4 µM (active)"}
{"molecule": "CC(C)(C)C(O)/C(=C\\c1ccc(Cl)cc1Cl)n1cncn1 (stereo not given)", "AC50": "inactive"}
{"molecule": "Cc1cc(C)nc(NC(=O)NS(=O)(=O)c2ccccc2C(=O)OC2COC2)n1", "AC50": "inactive"}
{"molecule": "CCC(C)Nc1c([N+](=O)[O-])cc(C(C)(C)C)cc1[N+](=O)[O-] (stereo not given)", "AC50": "24.1 µM (active)"}
{"molecule": "COP(=S)(OC)Oc1ccc([N+](=O)[O-])cc1", "AC50": "inactive"}
{"molecule": "COC(=O)c1ccccc1CS(=O)(=O)NC(=O)Nc1nc(OC)cc(OC)n1", "AC50": "inactive"}
{"molecule": "CC(C)OC(=O)Nc1cccc(Cl)c1", "AC50": "34.1 µM (active)"}
{"molecule": "CNC(=O)Oc1cccc(N=CN(C)C)c1", "AC50": "50 µM (active)"}
{"molecule": "[2H]C1([2H])[n+]2ccccc2-c2cccc[n+]2C1([2H])[2H]", "AC50": "13.5 µM (active)"}
{"molecule": "CCC(C)(C)C(=O)OC1=C(c2ccc(Cl)cc2Cl)C(=O)OC12CCCCC2", "AC50": "inactive"}
{"molecule": "CNC(=O)Oc1ccccc1OC(C)C", "AC50": "inactive"}
{"molecule": "CNC(=O)CSP(=S)(OC)OC", "AC50": "inactive"}
{"molecule": "COc1cc(OC)nc(NC(=O)NS(=O)(=O)c2cc(NC=O)ccc2C(=O)N(C)C)n1", "AC50": "inactive"}
{"molecule": "CCOC1Oc2ccc(OS(C)(=O)=O)cc2C1(C)C (stereo not given)", "AC50": "inactive"}

----------
biological target: Estrogen receptor (Homo sapiens) (UniProt P03372); test: CCTE_Deisenroth_AIME_384WELL_LUC_Shift: CCTE's 384-well Estrogen Receptor Transactivation Assay with AIME metabolic competence data shift (ERTA luciferase; difference in metabolism positive and negative), Deisenroth Lab (AID 2284041);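 note: shift is response with S9 minus without S9 so positive means metabolism raised ER signal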
Sequence (P03372 whole entry, looked up): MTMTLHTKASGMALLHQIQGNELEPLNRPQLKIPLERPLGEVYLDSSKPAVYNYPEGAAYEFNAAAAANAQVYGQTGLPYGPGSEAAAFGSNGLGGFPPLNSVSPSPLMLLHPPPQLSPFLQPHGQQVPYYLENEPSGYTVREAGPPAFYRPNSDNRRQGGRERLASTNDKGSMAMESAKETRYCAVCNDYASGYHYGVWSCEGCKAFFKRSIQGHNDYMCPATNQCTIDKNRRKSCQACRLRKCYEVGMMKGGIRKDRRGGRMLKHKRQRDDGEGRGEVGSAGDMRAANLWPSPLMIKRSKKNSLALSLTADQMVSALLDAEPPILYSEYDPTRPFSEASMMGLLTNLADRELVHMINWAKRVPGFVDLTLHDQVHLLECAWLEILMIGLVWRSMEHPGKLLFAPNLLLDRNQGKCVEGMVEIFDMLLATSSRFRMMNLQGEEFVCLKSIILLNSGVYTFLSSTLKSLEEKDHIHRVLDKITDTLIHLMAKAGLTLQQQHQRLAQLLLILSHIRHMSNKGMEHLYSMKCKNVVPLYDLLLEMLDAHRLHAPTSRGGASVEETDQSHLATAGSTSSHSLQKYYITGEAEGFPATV
The source made the active and inactive calls. How the source made its calls: active means hit-call score of the fitted dose curve at least 0.9, where 1 is the maximum; inactive means score below 0.9.
Labels: active, inactive

{"compound": "CNC(=O)Oc1ccccc1OC(C)C", "groupLabel": "inactive"}
{"compound": "O=S1OCC2C(CO1)C1(Cl)C(Cl)=C(Cl)C2(Cl)C1(Cl)Cl (configuration not stated)", "groupLabel": "inactive"}
{"compound": "COP(=O)(OC)OC=C(Cl)Cl", "groupLabel": "inactive"}
{"compound": "CC(C)(C)C(O)/C(=C\\c1ccc(Cl)cc1Cl)n1cncn1 (configuration not stated)", "groupLabel": "inactive"}
{"compound": "OCCOc1ccccc1", "groupLabel": "active"}
{"compound": "CCCN(CCC)c1c([N+](=O)[O-])cc(C(F)(F)F)cc1[N+](=O)[O-]", "groupLabel": "inactive"}
{"compound": "CNC(=O)Oc1cccc(N=CN(C)C)c1", "groupLabel": "inactive"}
{"compound": "CCC(C)Nc1c([N+](=O)[O-])cc(C(C)(C)C)cc1[N+](=O)[O-] (configuration not stated)", "groupLabel": "active"}
{"compound": "Clc1ccccc1-c1nnc(-c2ccccc2Cl)nn1", "groupLabel": "inactive"}
{"compound": "CCOCN(C(=O)CCl)c1c(C)cccc1CC", "groupLabel": "inactive"}
{"compound": "CCOC1Oc2ccc(OS(C)(=O)=O)cc2C1(C)C (configuration not stated)", "groupLabel": "inactive"}
{"compound": "CC(C)N(C(=O)COc1nnc(C(F)(F)F)s1)c1ccc(F)cc1", "groupLabel": "inactive"}

----------
Target: human Peripheral-type Benzodiazepine Receptor (PBR), TSPO (gene 706)
Assay: NVS_MP_hPBR: NovaScreen (NVS) Membrane Protein Assay for human Peripheral-type Benzodiazepine Receptor (PBR) (AID 2283331);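 note: hits reduce radioligand binding relative to DMSO baseline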
Experimental: NVS_MP_hPBR is a biochemical, single-readout assay that uses extracted gene-proteins from Human colonic cell membranes in a tissue-based cell-free assay. Measurements were taken 1 hour after chemical dosing in a 48-well plate.NVS_MP_hPBR is one of one assay component(s) measured or calculated from the NVS_MP_hPBR assay. […] This assay endpoint, NVS_MP_hPBR, was analyzed in the positive analysis fitting direction relative to DMSO as the negative control and baseline of activity. […]
Inconclusive results are not listed. The source made the active and inactive calls. How the source made its calls: active means hit-call score of the fitted dose curve at least 0.9, where 1 is the maximum; inconclusive means response in the unintended direction; inactive means score below 0.9.
Labels: YES = active, NO = inactive

{"molecule": "COP(=S)(OC)Oc1ccc(SC)c(C)c1", "groupLabel": "YES"}
{"molecule": "CC(C)OC(=O)Nc1cccc(Cl)c1", "groupLabel": "YES"}
{"molecule": "O=S1OCC2C(CO1)C1(Cl)C(Cl)=C(Cl)C2(Cl)C1(Cl)Cl (configuration not stated)", "groupLabel": "NO"}
{"molecule": "CC(C)N(C(=O)COc1nnc(C(F)(F)F)s1)c1ccc(F)cc1", "groupLabel": "YES"}
{"molecule": "CNC(=O)CSP(=S)(OC)OC", "groupLabel": "NO"}
{"molecule": "COC(=O)c1ccccc1S(=O)(=O)NC(=O)Nc1nc(C)nc(OC)n1", "groupLabel": "NO"}
{"molecule": "ClC1C(Cl)C(Cl)C(Cl)C(Cl)C1Cl (configuration not stated)", "groupLabel": "NO"}
{"molecule": "CC(C)(C)C(O)C(Oc1ccc(Cl)cc1)n1cncn1 (configuration not stated)", "groupLabel": "NO"}
{"molecule": "CC1(C)C(C=C(Cl)Cl)C1C(=O)OC(C#N)c1ccc(F)c(Oc2ccccc2)c1 (configuration not stated)", "groupLabel": "NO"}
{"molecule": "CC[C@H](C)[C@H]1O[C@]2(C=C[C@@H]1C)C[C@@H]1C[C@@H](C/C=C(\\C)[C@@H](O[C@H]3C[C@H](OC)[C@@H](O[C@H]4C[C@H](OC)[C@@H](O)[C@H](C)O4)[C@H](C)O3)[C@@H](C)/C=C/C=C3\\CO[C@@H]4[C@H](O)C(C)=C[C@@H](C(=O)O1)[C@]34O)O2 (tested in a mixture with another compound)", "groupLabel": "YES"}
{"molecule": "Oc1ccc(Cl)cc1Cc1ccccc1", "groupLabel": "YES"}
{"molecule": "CCOCN(C(=O)CCl)c1c(C)cccc1CC", "groupLabel": "YES"}
{"molecule": "O=C(O)COc1ccc(Cl)cc1Cl", "groupLabel": "NO"}
{"molecule": "CCCN(CCOc1c(Cl)cc(Cl)cc1Cl)C(=O)n1ccnc1", "groupLabel": "YES"}
{"molecule": "O=[N+]([O-])/N=C1\\NCCN1Cc1ccc(Cl)nc1", "groupLabel": "NO"}
{"molecule": "COP(=O)(OC)OC=C(Cl)Cl", "groupLabel": "NO"}
{"molecule": "COc1nn(CSP(=S)(OC)OC)c(=O)s1", "groupLabel": "NO"}
